So I've got IC50 readings for hACC1-CT (Homo sapiens), take a look.
property.measured: IC50 (nM)

>>> print(df.to_string())
                                   compound  property_measured  unit_tag  quantitative_result
0  COc1cc(C(=O)N2CCC3(CC2)NC(=O)c2cc(Br)ccc2O3)nc2c(OC)cccc12 [Compound 2]               IC50        nM                  100
1  COc1ccc(OC)c2[nH]c(C(=O)N3CCC4(CC3)NC(=O)c3ccccc3O4)cc12 [Compound 7]               IC50        nM                 1200
